Molecular target: BRD4 BD2 (Homo sapiens, UniProt O60885)
Test: AlphaScreen binding assay, BRD4 Bromodomain 2
Procedure: The binding of Example compounds to BRD4 Bromodomain 1 and BRD4 Bromodomain 2 was assessed using 384-well AlphaScreen assay technology. His-epitope tagged BRD4 BD144-168 and BRD4 BD2333-460 were cloned, expressed, and purified to homogeneity. BRD4 BD1 and BRD4 BD2 binding and inhibition was assessed by monitoring the engagement of biotinylated Histone H4 (1-21) K5/8/12/16 tetra-acetylated peptide with the targets using the AlphaScreen technology (PerkinElmer). […]
pIC50: −log10 of the molar value.
PROPERTY: pIC50

Worked examples follow.
"CC(=O)N1c2ccccc2N(C(=O)COc2ccc3ccccc3c2)C[C@@H]1C" has a reported pIC50 of < 6.30

// field: pIC50; key: "CC(=O)N1c2ccccc2N(S(=O)(=O)c2ccc(C(F)(F)F)nc2)C[C@@H]1C" ; value = < 6.30

The compound listed as "CC(=O)N1c2ccc(-c3ccc(S(=O)(=O)C4CC4)cc3)cc2N(C(=O)OC2CCOCC2)C[C@@H]1C" has a reported pIC50 of 6.30 to 7.30

pIC50 in this record for "CC(=O)N1c2ccc(-c3ccc(S(C)(=O)=O)cc3)cc2N(C(=O)Nc2ccccc2Cl)C[C@@H]1C" : 6.30 to 7.30

What the record says about "CNS(=O)(=O)c1ccc(-c2ccc3c(c2)N(C(=O)OC2CCCCC2)C[C@H](C)N3C(C)=O)cc1" : pIC50 is 6.30 to 7.30

New cases:
pIC50 in this record for "CC(=O)N1c2ccc(-c3ccc(S(=O)(=O)C(F)(F)F)cc3)cc2N(C(=O)c2ccco2)C[C@@H]1C" : 6.30 to 7.30

The compound "COc1ccc(-c2ccc3c(c2)N(C(=O)C2CC2)C[C@H](C)N3C(C)=O)cc1N1CCCS1(=O)=O" showed pIC50 equal to 6.30 to 7.30
